- System: HOP-62 complex spheroids with HUVEC/MSC, viability
- protocol_details: Anticancer human tumor HOP-62 cell line growth inhibition [RAS];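 further: spheroids exposed to agents for seven days before readout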
- measurement_setup: second compound 3.16 µM; first compound 1 µM; active compounds read low
- From the text: RAS pathway inhibitors in Combinations in Complex Spheroids A high-throughput screen of multi-cell type tumor spheroids was designed to identify active combinations of RAS pathway inhibitors and targeted small molecules. Complex spheroids include a stromal component modeled by human endothelial cells (HUVEC) and fibroblasts modeled by human mesenchymal stem cells (MSCs). […] Compounds. […] If the clinical Cmax for an agent had not been determined, the highest concentration tested was 10 microM. […]
viability, T/C vs 40%: less than gives y; not less than gives n.

| molecule | group |
| --- | --- |
| CC(Nc1ccc2c(c1)OCCn1cc(N3C(=O)OCC3C(F)F)nc1-2)C(N)=O (stereo unspecified) + C#Cc1c(F)ccc2cc(O)cc(-c3ncc4c(N5CC6CCC(C5)N6)nc(OCC56CCCN5CC(F)C6)nc4c3F)c12 | y |
| CC(C)NCC(C(=O)N1CCN(c2ncnc3c2C(C)CC3O)CC1)c1ccc(Cl)cc1 (stereo unspecified) + C#Cc1c(F)ccc2cc(O)cc(-c3ncc4c(N5CC6CCC(C5)N6)nc(OCC56CCCN5CC(F)C6)nc4c3F)c12 | n |
| CCC(CC)c1cc(NC2CCC(N)C2)n2nccc2n1 (stereo unspecified) + C#Cc1c(F)ccc2cc(O)cc(-c3ncc4c(N5CC6CCC(C5)N6)nc(OCC56CCCN5CC(F)C6)nc4c3F)c12 | n |
| Cc1nc(N2CCC3(CC2)COC(C)C3N)c(CO)nc1Sc1ccnc(N)c1Cl (stereo unspecified) + C#Cc1c(F)ccc2cc(O)cc(-c3ncc4c(N5CC6CCC(C5)N6)nc(OCC56CCCN5CC(F)C6)nc4c3F)c12 | y |
| NC1c2ccccc2OC12CCN(c1cnc3c(N4CCCc5ncccc54)n[nH]c3n1)CC2 (stereo unspecified) + C#Cc1c(F)ccc2cc(O)cc(-c3ncc4c(N5CC6CCC(C5)N6)nc(OCC56CCCN5CC(F)C6)nc4c3F)c12 | y |
